Target: Kappa-type opioid receptor (Homo sapiens)
Experiment: Agonist activity at kappa opioid receptor (unknown origin) expressed in HEK293-A cells assessed as reduction in forskolin-induced cAMP accumulation incubated for 30 mins by competition PKA binding assay
Non-standard residues stand in square brackets, D forms with d. Residues, ends and D or L forms follow the SMILES beside them. NMeF = CN[C@@H](Cc1ccccc1)C(=O)O
Hi! Just check whether EC50 is below 1000 nM. Below gives yes (1), equal or above gives no (0).

(Q) Please state whether EC50 is below 1000 nM for C[C@@H](NC(=O)[C@@H](N)Cc1ccc(O)cc1)C(=O)NCC(=O)N[C@@H](Cc1ccccc1)C(=O)NCC(=O)N1CCC[C@H]1C(=O)N[C@@H](CCC(N)=O)C(=O)N[C@@H](CCCNC(=N)N)C(=O)N[C@@H](Cc1ccccc1)C(N)=O (H-Y[dA]GFGPQRF-NH2)
(A) no (0)

(Q) Please state whether EC50 is below 1000 nM for CSCC[C@@H](NC(=O)[C@H](Cc1ccccc1)NC(=O)CNC(=O)[C@@H](C)NC(=O)[C@@H](N)Cc1ccc(O)cc1)C(=O)N1CCC[C@H]1C(=O)N[C@@H](CCC(N)=O)C(=O)N[C@@H](CCCNC(=N)N)C(=O)N[C@@H](Cc1ccccc1)C(N)=O (H-Y[dA]GF[dM]PQRF-NH2)
(A) no (0)

(Q) Please state whether EC50 is below 1000 nM for C[C@@H](NC(=O)[C@@H](N)Cc1ccc(O)cc1)C(=O)NCC(=O)N(C)[C@@H](Cc1ccccc1)C(=O)N[C@@H](CCC(N)=O)C(=O)N1CCC[C@H]1C(=O)N[C@@H](CCC(N)=O)C(=O)N[C@@H](CCCNC(=N)N)C(=O)N[C@@H](Cc1ccccc1)C(N)=O (H-Y[dA]G[NMeF]QPQRF-NH2)
(A) yes (1)

(Q) Please state whether EC50 is below 1000 nM for C[C@@H](NC(=O)[C@@H](N)Cc1ccc(O)cc1)C(=O)NCC(=O)N(C)[C@@H](Cc1ccccc1)C(=O)NCC(=O)N1CCC[C@H]1C(=O)N[C@@H](CCC(N)=O)C(=O)N[C@@H](CCCNC(=N)N)C(=O)N[C@@H](Cc1ccccc1)C(N)=O (H-Y[dA]G[NMeF]GPQRF-NH2)
(A) no (0)

(Q) Please state whether EC50 is below 1000 nM for CSCC[C@@H](NC(=O)[C@@H](N)Cc1ccc(O)cc1)C(=O)NCC(=O)N[C@@H](Cc1ccccc1)C(=O)N[C@@H](CCC(N)=O)C(=O)N1CCC[C@H]1C(=O)N[C@@H](CCC(N)=O)C(=O)N[C@@H](CCCNC(=N)N)C(=O)N[C@@H](Cc1ccccc1)C(N)=O
(A) no (0)

(Q) Please state whether EC50 is below 1000 nM for N=C(N)NCCC[C@H](NC(=O)[C@H](CCC(N)=O)NC(=O)[C@@H]1CCCN1C(=O)[C@H](CCC(N)=O)NC(=O)[C@H](Cc1ccccc1)NC(=O)CNC(=O)[C@@H](CO)NC(=O)[C@@H](N)Cc1ccc(O)cc1)C(=O)N[C@@H](Cc1ccccc1)C(N)=O
(A) no (0)

###

Listing of entries alongside the reported pEC50.
Target: Delta-type opioid receptor (Homo sapiens)
Assay: Agonist activity at delta opioid receptor (unknown origin) expressed in HEK293-A cells assessed as reduction in forskolin-induced cAMP accumulation incubated for 30 mins by competition PKA binding assay
Non-standard residues stand in square brackets, D forms with d. Residues, ends and D or L forms follow the SMILES beside them. NMeF = CN[C@@H](Cc1ccccc1)C(=O)O
A value of pEC50 is the negative decimal logarithm of a concentration given in moles per litre.

Some entries whose results are on file:
1. CSCC[C@H](NC(=O)[C@H](Cc1ccccc1)NC(=O)CNC(=O)[C@@H](C)NC(=O)[C@@H](N)Cc1ccc(O)cc1)C(=O)N1CCC[C@H]1C(=O)N[C@@H](CCC(N)=O)C(=O)N[C@@H](CCCNC(=N)N)C(=O)N[C@@H](Cc1ccccc1)C(N)=O (H-Y[dA]GFMPQRF-NH2)    7.41
2. CSCC[C@@H](NC(=O)[C@H](Cc1ccccc1)NC(=O)CNC(=O)[C@@H](C)NC(=O)[C@@H](N)Cc1ccc(O)cc1)C(=O)N1CCC[C@H]1C(=O)N[C@@H](CCC(N)=O)C(=O)N[C@@H](CCCNC(=N)N)C(=O)N[C@@H](Cc1ccccc1)C(N)=O (H-Y[dA]GF[dM]PQRF-NH2)    6.92
3. C[C@@H](NC(=O)[C@@H](N)Cc1ccc(O)cc1)C(=O)NCC(=O)N(C)[C@@H](Cc1ccccc1)C(=O)NCC(=O)N1CCC[C@H]1C(=O)N[C@@H](CCC(N)=O)C(=O)N[C@@H](CCCNC(=N)N)C(=O)N[C@@H](Cc1ccccc1)C(N)=O (H-Y[dA]G[NMeF]GPQRF-NH2)    6.24

Field: next compound
(Q) Any idea what its pEC50 is? The compound is C[C@@H](NC(=O)[C@@H](N)Cc1ccc(O)cc1)C(=O)NCC(=O)N[C@@H](Cc1ccccc1)C(=O)N[C@H](C)C(=O)N1CCC[C@H]1C(=O)N[C@@H](CCC(N)=O)C(=O)N[C@@H](CCCNC(=N)N)C(=O)N[C@@H](Cc1ccccc1)C(N)=O (H-Y[dA]GF[dA]PQRF-NH2)
(A) 6.09
